- Target Of Assay: L-lactate dehydrogenase (Plasmodium falciparum (isolate CDC / Honduras)) (UniProt Q27743)
- Sequence (Q27743 whole entry, looked up): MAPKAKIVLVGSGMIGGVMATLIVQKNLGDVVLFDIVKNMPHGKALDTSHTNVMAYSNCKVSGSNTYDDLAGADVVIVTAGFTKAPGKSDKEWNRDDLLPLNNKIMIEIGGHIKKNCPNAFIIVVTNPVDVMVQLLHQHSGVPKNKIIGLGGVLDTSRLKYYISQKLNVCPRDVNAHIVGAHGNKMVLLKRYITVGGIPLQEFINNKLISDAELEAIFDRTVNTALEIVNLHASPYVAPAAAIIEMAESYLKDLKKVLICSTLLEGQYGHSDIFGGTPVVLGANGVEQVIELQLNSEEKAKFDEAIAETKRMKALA
- Measurement Notes: PfLDH activity inhibition – cell lysate, 3D7 strain, counter-screen for P. falciparum growth inhibition project (AID 2304);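 further: 0% = vehicle and 100% = reference inhibitor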
- Condition Label: P. falciparum 3D7 crude extract, LDH APAD/NBT absorbance; at 2 µM; active compounds read high
Reported values of inhibition for individual entries
Measurement Type: inhibition (%)

- CCc1cc(Cc2cnc(N)nc2N)cc(CC)c1OC: 8
- Cc1ccc(-c2ccn(Cc3ccc(OCc4ccccc4)cc3)n2)cn1 (tested in a mixture with another compound): -3
- CC(CN1CCN(C)CC1)C(=O)Nc1cccc(-c2ccc(-c3nc4ccc(F)cc4[nH]3)cc2)c1 (configuration not stated): 1
- CN(CCN(C)CC(O)c1ccc(Cl)c(Cl)c1)CC(O)c1ccc(Cl)c(Cl)c1 (configuration not stated): -2
- CN(C)c1ccc(-c2ccc(C(=O)NC3CCN(Cc4ccc(C(C)(C)C)cc4)CC3)s2)cc1: -4
- O=C(COc1ccc(Cl)c(Cl)c1)NCCCCCN1CCCN(C(=O)Nc2ccc(Cl)c(Cl)c2)CC1: 3
- CCc1cccc(OCC2CCCN(c3ccc(C(=O)NC4CC4)cn3)C2)c1 (configuration not stated): 5
- O=S(=O)(NCCCN1CCOCC1)c1ccc2nccc(Nc3ccc(Oc4ccccc4)cc3)c2c1: -2
- Cc1ccccc1OCC(O)CN1CCC(C2CCN(CC(O)COc3ccccc3C)CC2)CC1 (configuration not stated): -4
- c1ccc(Oc2ccc(Nc3ccnc(Nc4ccc(CN5CCOCC5)cc4)n3)cc2)cc1: -4
- Nc1cccc(CNCc2cccc(-c3ccc(-c4nc5ccccc5[nH]4)s3)c2)c1: -1
- O=C(Nc1cccc(-c2ccc(-c3nc4ccccc4[nH]3)cc2)c1)Nc1ccc(F)c(F)c1F: 5

---

- Measurement Notes: antimalarial activity against Dd2 strain (AID 2302);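 further: 0% = DMSO untreated growth and 100% = chloroquine plus artemisinin killed control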
- Condition Label: P. falciparum Dd2 in RBCs, LDH growth readout, 72 h; at 2 µM; active compounds read high
Each entry gets condition not met if its growth inhibition stays under 60%, and condition met if its growth inhibition is 60% or above.

* COc1ccc(-c2ccc(NC(=O)c3ccc(C#N)cc3)cc2)cc1CNC(C)C | condition not met
* O=C(Nc1ccc(Cl)cc1)N(CC1C[C@H]2CC[C@@H](C1)N2Cc1ccc(C(F)(F)F)cc1)c1ccc(N2CCOCC2)c(F)c1 (stereo partly specified) | condition not met
* O=C(NCCCN1CCCC1=O)NCc1ccccc1 | condition not met
* Nc1cccc(CNCc2ccc(-c3ccc(-c4nc5ccc(C(F)(F)F)cc5[nH]4)s3)cc2)c1 | condition met
* N#CCSc1nnc(-c2ccccc2)c2ccccc12 | condition met
* Cc1cc(C2CCN(CCCCNC(=O)c3ccc(NC(=O)c4ccc(Cl)cc4)cc3)CC2)c(C)cc1OC(C)C | condition met
* Cc1cc2nc(-c3cc(Br)ccc3O)c(-c3cc(Br)ccc3O)nc2cc1C | condition not met
* COc1ccc(C(C(=O)NC2CCN(C[C@H](O)c3ccnc4ccc(OC)cc34)CC2)N2CCN(c3ccc(Cl)c(Cl)c3)CC2)cc1 (stereo partly specified) | condition met
* COc1cccc(-c2nn(C)c3sc(C(=O)NCCN4CCN(c5ccccc5F)CC4)cc23)c1 | condition not met
* CCN(CC)S(=O)(=O)c1ccc(C=CC(=O)Nc2cc(Cl)ccc2N2CCOCC2)cc1 | condition met
* CCCN1CCN(CC(O)CNC(=O)Nc2ccc(Br)cc2)CC1 (stereo unspecified) | condition met
